biological target: CYP3A4 (Homo sapiens, UniProt P08684); construct: from tissue; host or cells: human liver microsomes (pooled in the time-dependent assay); assay: time dependent inhibition of CYP450 in pooled human microsomes; assay type: in vitro ADME; details: pre-incubation 0 min; read-out: CYP3A4-T IC50
Sequence (P08684 whole entry): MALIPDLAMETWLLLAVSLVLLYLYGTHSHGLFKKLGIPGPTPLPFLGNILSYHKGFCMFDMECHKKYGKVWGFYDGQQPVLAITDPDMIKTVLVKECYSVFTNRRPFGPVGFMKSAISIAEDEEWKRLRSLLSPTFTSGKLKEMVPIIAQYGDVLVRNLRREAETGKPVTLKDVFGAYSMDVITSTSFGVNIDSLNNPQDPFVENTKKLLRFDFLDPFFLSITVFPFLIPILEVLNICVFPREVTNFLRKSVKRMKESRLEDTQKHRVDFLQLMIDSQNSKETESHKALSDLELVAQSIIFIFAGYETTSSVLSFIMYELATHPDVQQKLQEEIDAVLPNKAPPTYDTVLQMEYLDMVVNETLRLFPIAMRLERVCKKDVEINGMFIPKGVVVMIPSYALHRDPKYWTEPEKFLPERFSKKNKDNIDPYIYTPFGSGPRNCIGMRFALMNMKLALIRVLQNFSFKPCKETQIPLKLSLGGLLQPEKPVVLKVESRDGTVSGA
pIC50: −log10 of the molar value.
Experimental readout: pIC50

{"columns": ["Smiles representation", "Experimental readout", "Recorded value"],
 "data": [
  ["CO[C@H]1CC[C@H](NC(=O)c2nccc(-c3cncn3C)n2)CC1", "pIC50", "< 4.52"]
]}

----------
Each record here notes measured pIC50.
Target: mouse CD38 (Mus musculus)
Sequence (P56528 1-304): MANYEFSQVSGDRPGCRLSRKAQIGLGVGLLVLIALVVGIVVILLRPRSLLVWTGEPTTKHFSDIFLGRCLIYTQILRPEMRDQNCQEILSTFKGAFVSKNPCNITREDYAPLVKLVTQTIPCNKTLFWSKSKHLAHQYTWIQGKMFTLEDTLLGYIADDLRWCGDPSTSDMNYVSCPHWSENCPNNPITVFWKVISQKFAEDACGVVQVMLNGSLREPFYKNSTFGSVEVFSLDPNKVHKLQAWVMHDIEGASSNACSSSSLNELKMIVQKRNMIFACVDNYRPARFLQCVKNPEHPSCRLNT
Test: mouse recombinant CD38 enzyme assay (hydrolysis of NAD+)
Details: read-out: mCD38 BioChem IC50
pIC50: −log10 of the molar value.

{"columns": ["Compound", "pIC50"],
 "data": [
  ["O=C(Nc1ccc(C(F)F)nc1)c1nc(O)cc(-n2ccnc2)n1", 7.31],
  ["Cn1cncc1-c1ccnc(C(=O)N[C@H]2C[C@@H](c3ccc(C(F)(F)F)nc3)C2)n1", 6.73],
  ["CC(C)c1cc(C(=O)Nc2ccc(C(F)(F)F)nc2)nc(-n2ccnc2)n1", 7.49],
  ["Cn1cncc1-c1nccc(C(=O)N[C@H]2CC[C@H](C(F)(F)F)CC2)n1", 8.22],
  ["CCO[C@H]1CC[C@H](NC(=O)c2nccc(-n3ccnc3)n2)CC1", 7.44],
  ["O=C(NC1CCOC1)c1cccc(-n2ccnc2)n1 (stereo not drawn)", 6.79],
  ["CO[C@H]1CC[C@H](NC(=O)c2nc(-c3cncn3C)ncc2Cl)CC1", 7.97],
  ["O=C(N[C@H]1CC[C@H](OC(F)F)CC1)c1nccc(-n2ccnc2)n1", 7.44],
  ["Cc1cc(C(=O)N[C@H]2CC[C@H](C)CC2)nc(-n2ccnc2)n1", 9.00]
]}

----------
Each record here notes measured pIC50.
target: human CD38 (Homo sapiens, UniProt P28907); assay: human recombinant CD38 enzyme assay (hydrolysis of NAD+); conditions: human recombinant CD38, 0.4 nM enzyme, 62.5 μM NAD+; read-out: hCD38 BioChem IC50
pIC50: −log10 of the molar value.

{"columns": ["Smiles representation", "pIC50"],
 "data": [
  ["Cn1cncc1-c1ncc(F)c(C(=O)Nc2ccc(OC(F)F)nc2)n1", 8.74],
  ["O=C(Nc1cccnc1)c1ccnc(-n2ccnc2)c1", 5.92],
  ["CO[C@H]1CC[C@H](NC(=O)c2cc(C3CC3)nc(-n3ccnc3)n2)CC1", 7.57],
  ["COCCO[C@H]1CC[C@H](NC(=O)c2nccc(-c3cncn3C)n2)C1", 6.38],
  ["CO[C@H]1CC[C@H](NC(=O)c2nc(-c3cncn3C)ncc2F)CC1", 7.89],
  ["Cn1cncc1-c1ccnc(C(=O)N[C@H]2CC[C@H](NCC(F)(F)F)CC2)n1", 7.39],
  ["Cn1cncc1-c1nc(C(=O)Nc2ccc(C(F)F)nc2)cc(C2CCOCC2)n1", 8.35],
  ["O=C(N[C@H]1C[C@@H](c2ccnc(C(F)(F)F)c2)C1)c1nccc(-n2ccnc2)n1", 5.67]
]}

----------
Molecular target: CYP2C9 (Homo sapiens)
Construct: from tissue; host or cells: human liver microsomes (pooled in the time-dependent assay)
Sequence (P11712 whole entry): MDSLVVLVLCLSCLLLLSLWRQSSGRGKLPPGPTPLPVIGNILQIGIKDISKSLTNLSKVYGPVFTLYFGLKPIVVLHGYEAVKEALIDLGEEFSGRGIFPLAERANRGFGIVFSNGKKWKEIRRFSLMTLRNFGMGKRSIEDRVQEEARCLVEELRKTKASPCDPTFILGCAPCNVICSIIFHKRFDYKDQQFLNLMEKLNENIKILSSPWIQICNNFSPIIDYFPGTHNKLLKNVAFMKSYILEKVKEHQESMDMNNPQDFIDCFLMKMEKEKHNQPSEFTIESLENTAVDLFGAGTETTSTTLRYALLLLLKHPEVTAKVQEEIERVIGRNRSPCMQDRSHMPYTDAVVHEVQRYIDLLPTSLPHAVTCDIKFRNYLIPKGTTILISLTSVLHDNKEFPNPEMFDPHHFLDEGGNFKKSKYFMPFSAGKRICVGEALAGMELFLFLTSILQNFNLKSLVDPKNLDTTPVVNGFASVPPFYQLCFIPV
Test: direct inhibition of CYP450 in human liver microsomes
Assay type: in vitro ADME
Conditions: 50 uM, % of non-inhibited control, read-out: CYP2C9 T0 % activity
Method: Direct inhibition: […] A Perspective of the Pharmaceutical Research and Manufacturers of America”, Drug Metabolism and Disposition, 37 (7): 1355, 2009). For 3A4, the % activity was measured using both midazolam and testosterone as probes. Each compound at 3, 10, and 50 μM was incubated with HLM, NADPH and CYP isoenzyme specific probe substrates at 37° C. Inhibition of the probe substrate metabolism was quantified using LC/MS/MS. […]

{"columns": ["Molecule", "Target of assay", "Unit", "activity at 50 µM"],
 "data": [
  ["CC(C)(O)c1ccc(NC(=O)c2nccc(-n3ccnc3)n2)cn1 [Compound 249]", "CYP2C9 (Homo sapiens)", "%", 92],
  ["CO[C@H]1CC[C@H](NC(=O)c2nccc(-n3ccnc3)n2)CC1 [Compound 145]", "CYP2C9 (Homo sapiens)", "%", 96],
  ["CO[C@H]1CC[C@H](NC(=O)c2cc(C3CCC(F)(F)CC3)nc(-c3cncn3C)n2)CC1 [Compound 289]", "CYP2C9 (Homo sapiens)", "%", 49],
  ["Cn1cncc1-c1ccnc(C(=O)N[C@H]2CC[C@H](O)CC2)n1 [Compound 256]", "CYP2C9 (Homo sapiens)", "%", 86]
]}

----------
Biological target: human CD38 (Homo sapiens, UniProt P28907)
Sequence (P28907 1-300): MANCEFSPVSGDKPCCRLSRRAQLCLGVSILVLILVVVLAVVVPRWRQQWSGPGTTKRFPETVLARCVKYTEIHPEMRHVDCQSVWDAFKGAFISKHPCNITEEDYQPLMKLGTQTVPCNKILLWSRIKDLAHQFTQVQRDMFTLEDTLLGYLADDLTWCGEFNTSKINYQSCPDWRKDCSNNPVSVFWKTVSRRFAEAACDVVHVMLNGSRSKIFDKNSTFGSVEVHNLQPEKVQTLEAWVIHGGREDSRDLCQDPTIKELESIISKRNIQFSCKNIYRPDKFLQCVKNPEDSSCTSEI
Assay: human recombinant CD38 enzyme assay (hydrolysis of NAD+)
Conditions: human recombinant CD38, 0.4 nM enzyme, 62.5 μM NAD+; read-out: hCD38 BioChem IC50
pIC50: −log10 of the molar value.

{"columns": ["Smiles representation", "pIC50"],
 "data": [
  ["Cc1cc(-c2cncn2C)nc(C(=O)Nc2ccc(C(F)F)nc2)n1", 8.55],
  ["Cn1cncc1-c1ccnc(C(=O)N[C@H]2CC[C@H](C(F)F)CC2)n1", 7.39],
  ["O=C(Nc1ccc(F)c(F)c1)c1cccc(-n2ccnc2)n1", 8.40],
  ["COC(=O)N1CCC(NC(=O)c2cccc(-n3ccnc3)n2)CC1", 7.09],
  ["Cn1cncc1-c1ccnc(C(=O)N[C@H]2C[C@H](c3ccnc(C(F)(F)F)c3)C2)n1", 7.86]
]}

----------
molecular target: CYP3A4 (Homo sapiens, UniProt P08684); construct: from tissue; host or cells: human liver microsomes (pooled in the time-dependent assay); assay: direct inhibition of CYP450 in human liver microsomes (midazolam and testosterone probes); type: in vitro ADME; conditions: 50 uM, testosterone probe, read-out: CYP3A4-T T0 % activity
Returns one of rule met or rule not met; rule met when activity at 50 µM is >= 90%.

{"columns": ["Molecule", "Answer label"],
 "data": [
  ["Cn1cncc1-c1ccnc(C(=O)Nc2ccc(C(C)(C)O)nc2)n1", "rule not met"],
  ["CO[C@H]1CC[C@H](NC(=O)c2cc(C3CCC(F)(F)CC3)nc(-c3cncn3C)n2)CC1", "rule not met"],
  ["Cn1cncc1-c1ccnc(C(=O)N[C@H]2CC[C@H](O)CC2)n1", "rule met"],
  ["[2H]c1nc([2H])n(-c2nc(C)cc(C(=O)N[C@H]3CC[C@H](OCCOC)CC3)n2)c1[2H] [Comparator Compound A, reference compound]", "rule met"],
  ["CO[C@H]1CC[C@H](NC(=O)c2nccc(-n3ccnc3)n2)CC1", "rule met"],
  ["CO[C@H]1CC[C@H](NC(=O)c2cc(C3CCOCC3)nc(-c3cncn3C)n2)CC1", "rule not met"],
  ["CO[C@H]1CC[C@H](NC(=O)c2cc(C3(C)COC3)nc(-c3cncn3C)n2)CC1", "rule not met"]
]}

----------
Molecular target: mouse CD38 (Mus musculus)
Sequence (P56528 1-304): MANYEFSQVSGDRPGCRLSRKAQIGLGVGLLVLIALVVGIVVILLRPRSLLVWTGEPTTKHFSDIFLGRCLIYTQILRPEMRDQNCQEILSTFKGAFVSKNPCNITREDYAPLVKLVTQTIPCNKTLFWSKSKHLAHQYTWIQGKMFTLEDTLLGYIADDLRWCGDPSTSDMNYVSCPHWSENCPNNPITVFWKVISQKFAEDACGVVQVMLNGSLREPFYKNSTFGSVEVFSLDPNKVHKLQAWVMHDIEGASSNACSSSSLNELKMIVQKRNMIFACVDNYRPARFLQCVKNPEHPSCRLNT
Assay: mouse recombinant CD38 enzyme assay (hydrolysis of NAD+)
Details: read-out: mCD38 BioChem IC50
pIC50: −log10 of the molar value.
Returns one of T or F; T when pIC50 is >= 8.

{"columns": ["Smiles representation", "Answer label"],
 "data": [
  ["Cn1cncc1-c1nc(C(=O)N[C@H]2CC[C@H](OC(F)F)CC2)cc(C2(C)COC2)n1", "T"],
  ["CO[C@H]1CC[C@H](NC(=O)c2cc(C3CC4(COC4)C3)nc(-c3cncn3C)n2)CC1", "T"],
  ["Cn1cncc1-c1ccnc(C(=O)N[C@H]2CC[C@H](C(F)F)CC2)n1", "F"],
  ["O=C(N[C@H]1CC[C@H](OC(F)(F)F)CC1)c1nccc(-n2ccnc2)n1", "F"],
  ["Cn1cncc1-c1nc(C(=O)NC2CC3(C2)CC(F)(F)C3)cc(C(F)(F)F)n1", "T"],
  ["Cn1cncc1-c1ccnc(C(=O)N[C@@H]2CC[C@@H](O)C2)n1", "F"],
  ["O=C(Nc1ccc(C(F)(F)F)nc1)c1cc(C2CC2)nc(-c2cncs2)n1", "F"],
  ["Cn1cncc1-c1nc(C(=O)Nc2ccc(OC(F)F)nc2)cc(C2CCC(F)(F)CC2)n1", "T"],
  ["COc1cc(-c2cncn2C)nc(C(=O)Nc2ccc(C(F)(F)F)nc2)n1", "T"],
  ["O=C(N[C@H]1CC[C@H](C(F)F)CC1)c1cc(C(F)(F)F)nc(-n2ccnc2)n1", "F"],
  ["COc1cc(C(=O)N[C@H]2CC[C@H](OC)CC2)nc(-n2ccnc2)n1", "T"],
  ["CCO[C@H]1C[C@H](NC(=O)c2nccc(-c3cncn3C)n2)C1", "F"],
  ["C[C@H]1CC[C@H](NC(=O)c2ccnc(-c3cncs3)n2)CC1", "F"]
]}
